# ASSAY DETAILS: in vitro
# TEST SETTINGS: human, hela cells, % viability
Here, each record is paired with measured viability at 28.5 h, 10 µM data.
RECORDED METRIC: viability at 28.5 h, 10 µM (%)

                                   molecule  data_value
0  Cc1ccc(F)c(OC2(C(=O)O)CCN(Cc3ncc[nH]3)CC2)c1 [CBK307062]        85.2
1  COc1ccc(CCNS(=O)(=O)c2ccc(C3CNC(=O)C3)cc2)cc1OC (stereo not drawn) [CBK268352]         112
2  COc1cccc(N2C(=O)CC(N3CCN(Cc4ccc5c(c4)OCO5)CC3)C2=O)c1 (stereo not drawn) [CBK074411]        93.1
3  CC1(C)Cc2ccccc2C(NC(Cc2ccccc2)C(=O)O)=N1 (stereo not drawn) [CBK262533]         107
4  CN(C)c1nc(NCc2ccccc2)nc(SCC(=O)Nc2ccccc2Cl)n1 [CBK267190]        93.3
5  Cc1ccc(C(=O)N2CN(C(=O)CNC(C)(C)C)CC2(C)C)cc1 [CBK089575C]        88.6
6  CN(c1ccccc1C(N)=O)S(=O)(=O)c1ccc(S(=O)(=O)C(F)F)cc1 [CBK298289]        88.3
7  CCOC(=O)c1cnn(C2CCCN(Cc3ccsc3)C2)c1 (stereo not drawn) [CBK305112]        94.9
8  CCn1cc(-c2cncn2CCn2nc(C)c(Cl)c2C)cn1 [CBK281708]        87.9

---

# ASSAY DETAILS: in vitro
# TEST SETTINGS: human, hela cells, % viability
Binary label based on viability at 28.5 h, 10 µM with cut-off 90%: below gives Criterion met, not below gives Criterion not met.

In [3]: df
Out[3]:
                                   compound     classification
0  CS(=O)(=O)N1CC2(CCN(Cc3cccc4cccnc34)CC2)c2ccccc21  Criterion not met
1  COc1cc2c(cc1NC(=O)C/C(C)=N/NC(=O)c1ccoc1C)oc1ccccc12  Criterion not met
2  Cc1c(C(=O)N(C)Cc2nc(C(F)(F)F)cs2)nnn1C1CCNCC1 [CBK304315C]  Criterion not met
3  O=C(Nc1nc2c(s1)CCCCC2)C1CN(C(=O)Cc2ccc(F)cc2)C1      Criterion met

---

# ASSAY DETAILS: in vitro
# TEST SETTINGS: human, hela cells, % viability
Here, each record is paired with measured viability at 28.5 h, 10 µM data.
RECORDED METRIC: viability at 28.5 h, 10 µM (%)

In [3]: df
Out[3]:
                                   compound  data_value
0  CC(c1ccccc1)N1CCn2c(nc3cc(NC(=O)COc4ccccc4)ccc32)C1 (centres unmarked) [CBK268033]         105
1  CCc1nc2ccc(C(=O)N(C)CCN(C)C)cn2c1N(C)C(=O)Cc1ccccc1 [CBK146858]        90.8
2  Cc1nc(C)n(C(C)CNC(=O)Cc2coc3cc(C)c(C)cc23)n1 (centres unmarked) [CBK282577]         106
3  COc1ccc(-c2cnc3[nH]c(=O)n(CCCN4CCOCC4)c3n2)c(OC)c1OC [CBK064249]         109
4  Cc1cccc2c3c([nH]c12)C1(CCCN(Cc2ccc(F)cc2Cl)C1)NCC3 (centres unmarked) [CBK039339]          90
